assay-text: qHTS for Inhibitors of human tyrosyl-DNA phosphodiesterase 1 (TDP1): qHTS in cells in presence of CPT; note: nearly all actives have a fitted effect of over 55% in size
experimental-context: chicken DT40 Tdp1-/-;hTDP1 cells + 20 nM CPT, ATP luminescence, 48 h; series mostly up to 46.2 µM
About 50,000 (12%) of roughly 420,000 compounds were called active. About 26% were inconclusive and are not listed. Calls come from the whole dose curve; as a rule, active = well fitted inhibition curve with a large enough effect; inconclusive = small, poorly fitted or top-dose-only effect; inactive = flat fitted curve, though single readings scatter. The full list was thinned out, with actives kept by preference.
Outcome codes: T = active, F = inactive

>>> class_assignment("CC1(C)CC(=O)c2cc(C(=O)NCc3ccccc3)c(=O)[nH]c2C1")
"F"
>>> class_assignment("Cc1csc(/N=C/N(C)C)c1C#N")
"F"
>>> class_assignment("COCCN1C2=C(COC(C)(C)C2)C(=S)NC1c1ccccc1 (stereo not given)")
"F"
>>> class_assignment("Cc1ccc(NC(=O)N2CCC(C(=O)NCc3ccc(F)cc3)CC2)cc1")
"F"
>>> class_assignment("O=C(O)C1CCN(C(=O)OCc2ccccc2)CC1")
"F"
>>> class_assignment("COC(=O)c1sc(SC)c(S(=O)(=O)C(C)C)c1N/N=C(\\C#N)S(=O)(=O)c1ccccn1")
"F"
>>> class_assignment("CCOC(=O)C1CCN(C(=O)Cn2nc(C)c3c(C)n(-c4ccccc4)nc3c2=O)CC1")
"F"
>>> class_assignment("CCN(CC)S(=O)(=O)c1ccc(OC(C)C)c(N)c1")
"F"
>>> class_assignment("O=C(NCc1ccccc1)C1=C[C@@H](C2CCCCC2)C[C@@H](OCc2ccc(CO)cc2)O1")
"T"
>>> class_assignment("CC(C)(C)[C@H]1C=C(C(=O)NCc2ccccc2)O[C@@H](OCc2ccc(CO)cc2)C1")
"T"

###

assay-text: qHTS for Inhibitors of human tyrosyl-DNA phosphodiesterase 1 (TDP1): qHTS in cells in presence of CPT; note: nearly all actives have a fitted effect of over 55% in size
experimental-context: chicken DT40 Tdp1-/-;hTDP1 cells + 20 nM CPT, ATP luminescence, 48 h; series mostly up to 46.2 µM
About 50,000 (12%) of roughly 420,000 compounds were called active. Roughly 26% stayed inconclusive and do not appear here. The call rests on the fitted dose curve; in most records, active means well fitted inhibition curve with a large enough effect; inconclusive means small, poorly fitted or top-dose-only effect; inactive means flat fitted curve, though single readings scatter. This excerpt belongs to a sample that is enriched for actives.
Labels: 1 = active, -1 = inactive

>>> class_assignment("CC(=O)N1c2ccc(S(=O)(=O)N3CCC(C(=O)NCc4ccc(F)cc4)CC3)cc2CC1C (stereo not drawn)")
-1
>>> class_assignment("COC(=O)C[C@@H]1C=C[C@@H](NC(=O)c2ccc3c(c2)OCO3)[C@@H](CO)O1")
-1
>>> class_assignment("COc1ccc(OC)c(NC(=O)C2CCCN2S(=O)(=O)c2cccc3nsnc23)c1 (stereo not drawn)")
-1
>>> class_assignment("CC(NC(=O)CC1SC(N)=NC1=O)c1ccccc1 (stereo not drawn)")
-1
>>> class_assignment("CCOC(=O)CN(C(=O)COc1nc(-c2ccccc2)cc(C)c1C#N)c1ccc(F)cc1")
-1
>>> class_assignment("CCn1c(C(O)c2cc(OC)ccc2OC)nc2ccccc21 (stereo not drawn)")
-1
>>> class_assignment("Cc1ccc(S(=O)(=O)NCC(=O)N2CCOCCOCCOCCOCC2)cc1")
-1
>>> class_assignment("COc1ccc(CCNC(=O)CCNS(=O)(=O)c2cc(Br)cnc2N)cc1OC")
-1
>>> class_assignment("O=C(CN1CCc2ccccc21)NC(c1ccccc1)c1ccccc1")
-1
>>> class_assignment("COc1ccc(S(=O)(=O)c2c[nH]c(=S)[nH]c2=O)cc1Cl")
-1
>>> class_assignment("COc1ccc(C(CNC(=O)COc2ccc([N+](=O)[O-])cc2)N2CCCCC2)cc1 (stereo not drawn)")
-1
>>> class_assignment("CN(C)Cc1c(C(=O)N/N=C/c2ccccc2OCc2ccc(F)cc2)nnn1-c1nonc1N")
-1
>>> class_assignment("O=C(CNS(=O)(=O)c1ccc2c(c1)OCCCO2)N1CCN(c2ccc(F)cc2)CC1")
1
>>> class_assignment("COc1ccc(COC(=O)NC(C(=O)O)c2ccccc2)cc1 (stereo not drawn)")
-1
>>> class_assignment("CC(C)CNC(=O)C1(C)CCCN1C(=O)CSc1ccccc1 (stereo not drawn)")
-1
>>> class_assignment("COc1ccc2ncc3c(-c4ccc(C)c(C)c4)nn(CC(=O)NC4CCCC4)c3c2c1")
1
>>> class_assignment("CCOc1cc(C)c(S(=O)(=O)NCc2ccccn2)cc1C")
-1
>>> class_assignment("Cc1nc2ccccc2n1CC(=O)N/N=C/c1cccs1")
-1
>>> class_assignment("COC(=O)C(C)N=Cc1ccccc1 (stereo not drawn)")
-1
>>> class_assignment("CC(C)Cc1oc(C(=O)O)cc1CN")
-1
>>> class_assignment("Cc1ccc2nnn(Cc3cccc(C(C)(C)C)c3O)c2c1")
1
>>> class_assignment("COc1ccc(N2CCN(C(=O)CNS(=O)(=O)c3ccc(C)c(C)c3)CC2)cc1")
-1
>>> class_assignment("O=C(CN1CCN(Cc2ccccc2)CC1)Nc1ccc(F)c(F)c1")
-1

###

assay-text: qHTS for Inhibitors of human tyrosyl-DNA phosphodiesterase 1 (TDP1): qHTS in cells in presence of CPT; note: nearly all actives have a fitted effect of over 55% in size
experimental-context: chicken DT40 Tdp1-/-;hTDP1 cells + 20 nM CPT, ATP luminescence, 48 h; series mostly up to 46.2 µM
Among all 420,000 compounds or so, about 50,000 (12%) were called active. About 26% were inconclusive and are not listed. Calls come from the whole dose curve; as a rule, active = well fitted inhibition curve with a large enough effect; inconclusive = small, poorly fitted or top-dose-only effect; inactive = flat fitted curve, though single readings scatter. What follows is part of a selection rich in actives, with near analogues and random picks from the rest.
Possible outcomes: active, inactive

>>> class_assignment("COc1ccc(-c2noc(CNC(=O)C(C)Oc3ccccc3)n2)cc1 (stereo unspecified)")
"inactive"
>>> class_assignment("Cc1ccc(N=C2NC(=O)c3cccc([N+](=O)[O-])c32)cc1")
"inactive"
>>> class_assignment("Cc1cccc(NC(=O)CSC(N)=O)c1C")
"active"
>>> class_assignment("Cc1cccc(NC(=O)CSc2nc3c(c(=O)[nH]2)CCCC3)c1C")
"inactive"
>>> class_assignment("Cc1cccc(NC(=O)CSc2nc3c(c(=O)[nH]2)CCC3)c1C")
"inactive"
>>> class_assignment("Cc1ccc(CN(CC(=O)NCC2CCCO2)S(=O)(=O)c2ccc(C)cc2)cc1 (stereo unspecified)")
"inactive"
>>> class_assignment("C[C@H](NC(=O)c1nc[nH]c1C(=O)NCC(=O)OC(C)(C)C)C(=O)OCc1ccccc1")
"inactive"
>>> class_assignment("CC(=O)Nc1ccc(S(=O)(=O)N2CCC(C(=O)NC3CC3)CC2)cc1")
"inactive"
>>> class_assignment("Cc1cccc(NC(=O)CSc2ncc(-c3ccccc3)[nH]2)c1C")
"active"
>>> class_assignment("Cc1cc(N=Nc2ccc3ccccc3c2)ccc1O")
"inactive"
>>> class_assignment("Cc1cccc(NC(=O)CN2C(=O)c3ccccc3C2=O)c1C")
"inactive"

###

assay-text: qHTS for Inhibitors of human tyrosyl-DNA phosphodiesterase 1 (TDP1): qHTS in cells in presence of CPT; note: nearly all actives have a fitted effect of over 55% in size
experimental-context: chicken DT40 Tdp1-/-;hTDP1 cells + 20 nM CPT, ATP luminescence, 48 h; series mostly up to 46.2 µM
The campaign covered roughly 420,000 compounds. About 50,000 (12%) were called active. Another 26% or so got no clear call; they are omitted. Calls follow the shape of the dose curve; as a rule, active = well fitted inhibition curve with a large enough effect; inconclusive = small, poorly fitted or top-dose-only effect; inactive = flat fitted curve, though single readings scatter. The entries come from a sample that favours actives as a whole.
Outcomes: active, inactive

>>> class_assignment("O=C(Nc1ccccc1Cl)N1CCN(c2ccc3nncn3n2)CC1")
"inactive"
>>> class_assignment("N#C/C(=C\\N1CCOCC1)S(=O)(=O)c1ccc(Cl)cc1")
"inactive"
>>> class_assignment("Cc1cccc(C)c1NC(=O)CNC(=O)c1ccc2c(c1)OCCO2")
"inactive"
>>> class_assignment("Cc1c(NC(=S)NCc2ccc(F)cc2)cccc1[N+](=O)[O-]")
"active"
>>> class_assignment("CCCCN(C(=O)C(CCSC)N1C(=O)c2ccccc2C1=O)c1c(N)n(CCC)c(=O)[nH]c1=O (stereo unspecified)")
"inactive"
>>> class_assignment("CC1=NN(C(N)=S)C(=O)C1N=Nc1cc(Cl)ccc1Cl (stereo unspecified)")
"inactive"
>>> class_assignment("Cc1c(NC(=O)CCCOc2ccccc2)cccc1[N+](=O)[O-]")
"inactive"
>>> class_assignment("C/C(=N\\OCC(=O)Nc1ccc(Br)cc1)c1cccs1")
"inactive"
>>> class_assignment("N#Cc1cc([N+](=O)[O-])ccc1NCC1CCCO1 (stereo unspecified)")
"inactive"
>>> class_assignment("Cc1nc2ccccc2c(=O)n1-c1ccc(NS(=O)(=O)c2ccc(F)cc2F)cc1")
"inactive"
>>> class_assignment("O=C(CN1C(=O)NC2(CCc3ccccc32)C1=O)NC1CCCCC1 (stereo unspecified)")
"inactive"

###

assay-text: qHTS for Inhibitors of human tyrosyl-DNA phosphodiesterase 1 (TDP1): qHTS in cells in presence of CPT; note: nearly all actives have a fitted effect of over 55% in size
experimental-context: chicken DT40 Tdp1-/-;hTDP1 cells + 20 nM CPT, ATP luminescence, 48 h; series mostly up to 46.2 µM
The whole screen tested about 420,000 compounds, of which about 50,000 (12%) were called active. Roughly 26% stayed inconclusive and do not appear here. The call rests on the fitted dose curve; in most records, active means well fitted inhibition curve with a large enough effect; inconclusive means small, poorly fitted or top-dose-only effect; inactive means flat fitted curve, though single readings scatter. Shown is part of a subset that was picked to be rich in actives.
Classes used: active, inactive

>>> class_assignment("COc1ccc(OCC(=O)Nc2ccc(NC(=O)c3ccco3)c(C)c2)cc1")
"inactive"
>>> class_assignment("Cc1cccc(C)c1Nc1c(-c2ccccc2O)nc2ncccn12")
"active"
>>> class_assignment("CCCc1nn2c(=O)cc(CSCC(=O)Nc3cccc(C)c3)nc2s1")
"inactive"
>>> class_assignment("O=C(Nc1ccccc1N1CCCCC1)c1cccc(F)c1")
"inactive"
>>> class_assignment("Cn1c(=O)cc(OCC(=O)N2CCN(c3ccccc3F)CC2)c2ccccc21")
"inactive"
>>> class_assignment("CN(CC(=O)NC(=O)Nc1ccccc1F)Cc1ccccc1")
"inactive"
>>> class_assignment("COc1cc(C(=O)N2CCN(C(=O)COc3cccc(C)c3)CC2)cc(OC)c1OC")
"inactive"
>>> class_assignment("Nc1ncnc2c1ncn2[C@@H]1O[C@H](C(=O)N2CCCN(Cc3ccccc3F)CC2)[C@@H](O)[C@H]1O")
"inactive"
>>> class_assignment("O=C(Nn1cc(C(=O)N2CCN(c3ccccc3F)CC2)c2ccccc2c1=O)c1cnccn1")
"active"
>>> class_assignment("Cc1ccc(-c2c(N)nc3ncccn23)cc1")
"inactive"
>>> class_assignment("CCOC(=O)C1CCN(C(c2ccc(F)cc2)c2sc3nc(-c4ccco4)nn3c2O)CC1 (stereo not drawn)")
"inactive"
>>> class_assignment("Cc1cccc(C)c1NC1=NC(=S)N(c2ccc(N(C)C)cc2)C1(C)C")
"inactive"
>>> class_assignment("COc1ccc(-c2nnc3n2CCCCC3)cc1")
"inactive"
>>> class_assignment("COc1ccc(-c2cc(C(F)(F)F)n3nc(C(=O)N4CCOCC4)c(Cl)c3n2)cc1")
"active"
>>> class_assignment("c1ccc(-n2nnnc2N2CCOCC2)cc1")
"inactive"
>>> class_assignment("CC(C)[C@H](NC(=O)OCc1ccccc1)C(=O)OCc1ccccc1")
"inactive"
>>> class_assignment("COc1ccc(C2=CC(c3cccc(OC)c3)n3nnnc3N2)cc1 (stereo not drawn)")
"inactive"
>>> class_assignment("COc1ccc(OCC(=O)N2CCOCC2)cc1")
"inactive"
>>> class_assignment("O=C(Nc1ccccc1N1CCOCC1)c1ccncc1")
"inactive"
>>> class_assignment("CC(Oc1cccc(Cl)c1)C(=O)Nc1ccc(S(=O)(=O)Nc2ncccn2)cc1 (stereo not drawn)")
"inactive"
>>> class_assignment("O=C(Nc1ccccc1N1CCCCC1)c1ccc2nccnc2c1")
"active"
>>> class_assignment("Cc1cc(OC(C)C(=O)NC2CC(C)(C)NC(C)(C)C2)c2c(C)cc(=O)oc2c1 (stereo not drawn)")
"inactive"
>>> class_assignment("CCOC(=O)C1CCN(c2csc3ccc(C)cc3c2=O)CC1")
"inactive"
